All values here come from BindingDB's records for patent US20250163061.

# testTarget: Menin (Homo sapiens, UniProt O00255)
# testMethodNotes: Primary Assay Used to Determine Potency of MEN1 Activity Inhibition
measuredParameter: EC50

The cases that follow already have their EC50 on record.
compound	testTarget	testValue
Cc1c(CN2CCC3(CC2)CN(c2ncnc4cc(F)c(CC(F)(F)F)cc24)C3)ccc2c1cc(C#N)n2CC(C)N1CCN(S(C)(=O)=O)CC1 (stereo not given) [US20250163061, Compound 30]	Menin (Homo sapiens, UniProt O00255)	< 75 nM
Cc1cc(CN2CCC3(CC2)CN(c2ncnc4ccc(CC(F)(F)F)cc24)C3)cc2c1cc(C#N)n2CC(C)N1CCN(S(C)(=O)=O)CC1 (stereo not given) [US20250163061, Compound 83]	Menin (Homo sapiens, UniProt O00255)	> 5000 nM
Cc1c(CN2CCC3(CC2)CN(c2ncnc4ccc(CC(F)(F)F)cc24)C3)ccc2c1cc(C#N)n2C[C@H]1CNC(=O)CO1 [US20250163061, Compound 101]	Menin (Homo sapiens, UniProt O00255)	< 75 nM

Would you mind telling me what EC50 value was observed for Cc1c(CN2CCC3(CC2)CN(c2ncnc4ccc(CC(F)(F)F)cc24)C3)ccc2c1cc(C#N)n2CC12CC(N3CC(=O)NS3(=O)=O)(C1)C2 [US20250163061, Compound 62] ? < 75 nM

Lookup Cc1c(CN2CCC3(CC2)CN(c2ncnc4ccc(CC(F)(F)F)cc24)C3)ccc2c1cc(C#N)n2CC1CNS(=O)(=O)CO1 (stereo not given) [US20250163061, Compound 21] < 75 nM

----------
# testTarget: Menin (Homo sapiens)
# testMethodNotes: Primary Assay Used to Determine Potency of MEN1 Activity Inhibition
pEC50: −log10 of the molar value.
measuredParameter: pEC50

Here are 2 compounds together with their reported answers.
> print(dat)
                                   compound            testtarget  measuredparameter  testvalue
1  Cc1c(CN2CCC3(CC2)CN(c2ncnc4ccc(OC(F)(F)F)cc24)C3)ccc2c1cc(C#N)n2C[C@@H]1CNC(=O)CO1  Menin (Homo sapiens)              pEC50     > 7.12
2  CCCCS(=O)(=O)N1CCCN(C(C)Cn2c(C#N)cc3c(C)c(CN4CCC5(CC4)CN(c4ncnc6ccc(CC(F)(F)F)cc46)C5)ccc32)CC1 (stereo not drawn)  Menin (Homo sapiens)              pEC50     > 7.12

Please turn your attention to the following entry.
Could you share which pEC50 value was measured for Cc1c(CN2CCC3(CC2)CN(c2ncnc4ncc(CC(F)(F)F)cc24)C3)ccc2c1cc(C#N)n2CC(C)N1CCN(S(C)(=O)=O)CC1 (stereo not drawn) ? > 7.12

----------
The following compounds are listed with their measured EC50 values.
# testTarget: Menin (Homo sapiens)
# Sequence (O00255 whole entry): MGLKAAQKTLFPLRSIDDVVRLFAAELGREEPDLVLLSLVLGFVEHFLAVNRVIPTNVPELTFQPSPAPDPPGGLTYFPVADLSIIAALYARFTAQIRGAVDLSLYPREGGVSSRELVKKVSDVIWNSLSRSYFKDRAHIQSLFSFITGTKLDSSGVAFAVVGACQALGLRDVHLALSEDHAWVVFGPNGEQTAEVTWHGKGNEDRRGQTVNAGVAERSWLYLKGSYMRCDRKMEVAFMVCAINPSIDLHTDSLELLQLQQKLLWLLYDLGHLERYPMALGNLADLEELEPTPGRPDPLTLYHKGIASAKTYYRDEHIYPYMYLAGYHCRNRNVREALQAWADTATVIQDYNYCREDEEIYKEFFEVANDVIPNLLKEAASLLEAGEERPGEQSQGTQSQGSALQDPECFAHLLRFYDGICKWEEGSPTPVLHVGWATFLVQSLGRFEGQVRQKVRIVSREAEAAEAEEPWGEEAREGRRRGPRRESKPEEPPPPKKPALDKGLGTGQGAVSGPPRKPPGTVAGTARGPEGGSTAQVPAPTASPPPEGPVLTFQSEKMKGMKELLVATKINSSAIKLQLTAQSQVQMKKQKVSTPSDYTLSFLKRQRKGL
# testMethodNotes: Primary Assay Used to Determine Potency of MEN1 Activity Inhibition

Worked cases, answers included:
compound	EC50
Cc1c(CN2CCC3(CC2)CN(c2ncnc4ccc(CC(F)(F)F)cc24)C3)ccc2c1cc(C#N)n2CC(C)N1CCCN(S(C)(=O)=O)CC1 (stereo not drawn) [US20250163061, Compound 29]	< 0.075 µM
Cc1c(CN2CCC3(CC2)CN(c2ncnc4cnc(CC(F)(F)F)cc24)C3)ccc2c1cc(C#N)n2CC(C)N1CCN(S(C)(=O)=O)CC1 (stereo not drawn) [US20250163061, Compound 45]	< 0.075 µM

Moving on to the next compound.
Form field: EC50 recorded for Cc1c(CN2CCC3(CC2)CN(c2ncnc4ccc(CC(F)(F)F)cc24)C3)ccc2c1cc(C#N)n2CC1CNC(=O)NC1 [US20250163061, Compound 4] with Menin (Homo sapiens) (enter value) < 0.075 µM
